assay: A549 cell viability effects, profiling panel, calcein-AM fluorescence, 48 h, basal (AID 1162); settings: higher = more signal; also: test concentration not given here
MEASURED_ENDPOINT: z-score
Keep it simple and answer with nothing but the number.

Reference set, count: 5
>>> endpoint_value("CO[C@@H]1C=CCC(=O)N2CCC[C@H]2C(=O)OC[C@@H](C)C(=O)OC[C@H]1C")
0.623
>>> endpoint_value("CC(=O)OC[C@H]1OC(ON=CC[C@@H]2C=C[C@H](OC(C)=O)[C@@H](COC(C)=O)O2)[C@H](OC(C)=O)[C@@H](OC(C)=O)[C@@H]1OC(C)=O (stereo not given in full)")
-0.49
>>> endpoint_value("COc1ccc(C#C[C@@H]2C=C[C@H](OC(C)=O)[C@@H](COC(C)=O)O2)cc1")
-0.142
>>> endpoint_value("CO[C@@H]1COC(=O)[C@@H]2CCCN2C(=O)[C@@H](C)COC(=O)CC=C[C@H]1C")
-1.06
>>> endpoint_value("CC(C)=CCCC(C)=CCON=C1C[C@@H](O)[C@@H](O)[C@@H]2[C@@H]3C(=O)N(C[C@@H]4CCCO4)C(=O)[C@@H]3CC[C@H]12")
-0.0285

Proceeding to the next compound to report its z-score.
Query: // returns reported z-score for input "CC[C@@H](c1ccccc1)n1c(=O)n2n(c1=O)[C@H]1[C@H](O)[C@@H]3O[C@@H]3C(=O)[C@H]1CC2"
Result: -0.0457

###

Listed below: composite z-score values for each entry.
biological target: Calmodulin-1 (Homo sapiens) (UniProt P0DP23); experiment: CALM1 binders on microarrays, EGTA buffer, profiling panel, biochemical, small-molecule microarray, Cy5-labelled CALM1 (AID 1111); conditions: Cy5-CALM1 binding fluorescence, higher = more signal;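 also: labelled calmodulin applied in Tris saline Tween buffer holding calcium plus EGTA and DTT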
Keep it simple and answer with nothing but the number.

>>> endpoint_value("COC(=O)[C@H](C)NC(=O)CCC1CC(OC(=O)NCc2ccc3c(c2)OCO3)CC2(CCCC(COC(=O)NCC3CCCCC3)O2)O1 (some centres undefined)")
0.369
>>> endpoint_value("C#CCCCON=C1C[C@@H](O)[C@@H](O)[C@@H]2[C@@H]3C(=O)N(C(C)(C)C)C(=O)[C@@H]3CC[C@H]12")
-0.245
>>> endpoint_value("COC(=O)[C@H](C)NC(=O)CCC1CC(OC(=O)NCc2ccc3c(c2)OCO3)CC2(CCCC(COC(=O)NCC(c3ccccc3)c3ccccc3)O2)O1 (some centres undefined)")
0.869

Proceeding to the next molecule to report its composite z-score.
Query: Value wanted: composite z-score (Calmodulin-1 (Homo sapiens) (UniProt P0DP23)) of entry "CCN1C(=O)[C@H]2[C@H]3[C@H](O)[C@H](O)CC(=O)[C@H]3CC[C@H]2C1=O"
Result: -0.123

###

Listed below: composite z-score values for each entry.
test: small-molecule microarray binders of probe aLefty2, primary screen, biochemical, biotinylated probe, 635/667 nm fluorescence (AID 1094); details: higher = more signal;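 also: score merges spot fluorescence near 667 nm with spot signal-to-noise ratio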
Keep it simple and answer with nothing but the number.

>>> endpoint_value("C[C@H](ON=C1[C@H]2CCn3c(=O)n(-c4ccccc4)c(=O)n3[C@H]2[C@H](O)[C@@H]2O[C@H]12)c1cn([C@H](CO)Cc2ccccc2)nn1")
-0.175

Query: // returns reported composite z-score for input "CC(C)=CCCC(C)=CCON=C1C[C@@H](O)[C@@H](O)[C@@H]2[C@@H]3C(=O)N(c4ccc(F)cc4F)C(=O)[C@@H]3CC[C@H]12"
Result: -0.0413

Query: // returns reported composite z-score for input "CC(C)(C)N1C(=O)[C@H]2[C@H]3[C@H](O)[C@H](O)CC(=NO[C@@H]4O[C@H](CO)[C@@H](O)[C@H](O)[C@H]4O)[C@H]3CC[C@H]2C1=O"
Result: -0.0603

Query: // returns reported composite z-score for input "CON=C1[C@H]2CCn3c(=O)n(-c4ccccc4)c(=O)n3[C@H]2[C@H](O)[C@@H]2O[C@H]12"
Result: -0.205

Query: // returns reported composite z-score for input "CCOC(=O)NN=C1C[C@@H](O)[C@@H](O)[C@@H]2[C@@H]3C(=O)N(Cc4ccc5c(c4)OCO5)C(=O)[C@@H]3CC[C@H]12"
Result: -0.289

Query: // returns reported composite z-score for input "CCN1C(=O)[C@H]2[C@H]3[C@H](O)[C@H](O)CC(=NO[C@@H](C)c4cn([C@H](CO)Cc5ccccc5)nn4)[C@@H]3CC[C@H]2C1=O"
Result: -0.264

###

Listed below: composite z-score values for each entry.
tested on: Human papillomavirus type 1a E7 protein (residues 1-88); assay: HPV1a E7 small-molecule binders, primary screen, biochemical, small-molecule microarray, residues 1-88, 635 nm (AID 1129); details: small-molecule microarray binding, fluorescence 635 nm; higher = more signal
Keep it simple and answer with nothing but the number.

Reference set, count: 3
>>> endpoint_value("O=C1[C@H]2[C@H]3[C@H](O)[C@H](O)CC(=NOCc4ccccc4)[C@@H]3CC[C@H]2C(=O)N1c1ccc(F)cc1F")
-0.406
>>> endpoint_value("COc1ccc(O[C@H]2C=C[C@@H](c3ccccc3)O[C@@H]2CON=C(C)CCC(=O)OC[C@H]2O[C@H](c3ccccc3)C=C[C@@H]2Oc2ccc(OC)cc2)cc1")
-2.01
>>> endpoint_value("CCOC(=O)NN=C1C[C@@H](O)[C@@H](O)[C@@H]2[C@@H]3C(=O)N(Cc4ccc5c(c4)OCO5)C(=O)[C@@H]3CC[C@H]12")
0.117

Query: // returns reported composite z-score for input CC1O[C@H]2C3=C(C(=O)[C@@H]4O[C@@H]4[C@H]3O)[C@@H]1C1[C@@H](C)OC=C3[C@H](O)C4O[C@@H]4C(=NOCc4ccccc4)[C@]312 (stereo partly specified)
Result: -0.492

Query: // returns reported composite z-score for input "O=C1[C@H]2[C@H]3[C@H](O)[C@H](O)CC(=NOC[C@@H](O)COCc4ccco4)[C@H]3CC[C@H]2C(=O)N1c1ccc(F)cc1F"
Result: 0.553

Query: // returns reported composite z-score for input "CCCNC(=O)OC[C@H]1O[C@H](CCON=C(C)CCN2CCCc3nc(C)c(C)cc32)C=C[C@@H]1Oc1ccc(OC)cc1"
Result: 1.09

###

assay: small-molecule microarray binders of probe aXIP, primary screen, biochemical, NeuroSMM set, 635/667 nm fluorescence (AID 1119); conditions: higher = more signal, called active from +8 up or from −8 down;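 also: probe is the protein aXip251-270 applied at 1 µg/mL to compound-printed slides; binding of probe to printed compounds measured as 667 nm fluorescence plus signal to noise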
Active and inactive are the calls of the source.
MEASURED_ENDPOINT: composite Z-score

>>> endpoint_value("Cc1cc2c(c(=O)o1)[C@@H](O)[C@H]1O[C@H]1C2=O")
"-0.0055 (inactive)"
>>> endpoint_value("CC(C)CON=C1C[C@@H](O)[C@@H](O)[C@@H]2[C@@H]3C(=O)N(C(C)(C)C)C(=O)[C@@H]3CC[C@H]12")
"0.3 (inactive)"
>>> endpoint_value("C[C@@H]1CC[C@H]2C(=O)O[C@@H](Cc3ccccc3)CN2[C@H]1c1ccc(Br)cc1")
"-0.358 (inactive)"

Query: // returns reported composite Z-score for input "CC(C)CON=C1[C@H]2CCn3c(=O)n(Cc4cc5c(cc4Cl)OCO5)c(=O)n3[C@H]2[C@H](O)[C@@H]2O[C@H]12"
Result: 0.242 (inactive)

###

target: Dickkopf-related protein 1 (Homo sapiens) (UniProt O94907); assay: DKK1 binders on small-molecule microarrays, primary screen, biochemical, small-molecule microarray, 635 nm fluorescence scan (AID 1106); conditions: DKK1 binding, higher = more signal;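 also: score merges emission near 667 nm with signal to noise over three replicate slides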
Sequence (O94907 whole entry, looked up): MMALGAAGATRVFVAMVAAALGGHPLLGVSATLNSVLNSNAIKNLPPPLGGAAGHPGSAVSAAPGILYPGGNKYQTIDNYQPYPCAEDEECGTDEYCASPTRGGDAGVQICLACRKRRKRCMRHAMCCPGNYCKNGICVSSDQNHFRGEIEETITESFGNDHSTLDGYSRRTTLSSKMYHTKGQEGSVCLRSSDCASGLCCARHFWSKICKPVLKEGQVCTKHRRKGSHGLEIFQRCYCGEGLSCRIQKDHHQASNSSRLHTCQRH
Listed below: composite z-score values for each entry.
Keep it simple and answer with nothing but the number.

Reference set, count: 5
>>> endpoint_value("Cc1ccc(S(=O)(=O)N[C@H]2COC(=O)CC=C[C@H](C)[C@@H](NS(=O)(=O)c3ccc(C)cc3)COC(=O)CC=C[C@@H]2C)cc1")
0.486
>>> endpoint_value("CCOC(=O)[C@H](Cc1ccccc1)NC(=O)CCC1CC(OC(=O)NCCc2ccc(F)cc2)CC2(CCCC(COC(=O)NCCc3ccc(Cl)cc3)O2)O1 (some centres not stated)")
0.555
>>> endpoint_value("COC(=O)[C@H](C)NC(=O)CCC1CC(OC(=O)NCc2ccc3c(c2)OCO3)CC2(CCCC(COC(=O)NCCc3ccccc3OC)O2)O1 (some centres not stated)")
-0.253
>>> endpoint_value("O=C1[C@H]2[C@H]3[C@H](O)[C@H](O)CC(=NOCc4ccccc4)[C@@H]3CC[C@H]2C(=O)N1C[C@@H]1CCCO1")
-0.028
>>> endpoint_value("C=C(C)C(=O)OCC1CN2[C@@H](CC[C@@H](C)[C@@H]2c2ccc(Br)cc2)C(=O)O1 (some centres not stated)")
0.147

Query: Value wanted: composite z-score (Dickkopf-related protein 1 (Homo sapiens) (UniProt O94907)) of entry "CO[C@H]1COC(=O)[C@@H](C)COC(=O)[C@@H](OCc2ccccc2)C=C[C@@H]1C"
Result: 0.348

Query: Value wanted: composite z-score (Dickkopf-related protein 1 (Homo sapiens) (UniProt O94907)) of entry CCOC(=O)[C@H](Cc1ccccc1)NC(=O)CCC1CC(OC(=O)NCc2cccc3ccccc23)CC2(CCCC(COC(=O)NCc3cccc(C(F)(F)F)c3)O2)O1 (some centres not stated)
Result: 0.025
